Cited source for all entries: PubChem BioAssay (EPA / NIEHS)

assayedSystem: Estrogen receptor (Homo sapiens)
experimentSummary: OT_ERa_GFPERaERE_0120: Odyssey Thera (OT) 2-hour HeLa Transcription Induction Assay for Estrogen Receptor (AID 2283382)
Activity calls are given as the source filed them. How the source made its calls: active means hit-call score of the fitted dose curve at least 0.9, where 1 is the maximum; inconclusive means response in the unintended direction; inactive means score below 0.9.
Select the matching outcome among active, inactive

# example entries with known answers
So what was the verdict on `CS(=O)(=O)c1ccc(C(=O)C2C(=O)CCCC2=O)c([N+](=O)[O-])c1` in this test?
inactive

So what was the verdict on CCOC(=O)C(C)OC(=O)c1cc(Oc2ccc(C(F)(F)F)cc2Cl)ccc1[N+](=O)[O-] (stereo not drawn) in this test?
inactive

So what was the verdict on `CN=C=S` in this test?
inactive

---
So what was the verdict on `CN/C(=N\[N+](=O)[O-])NCc1cnc(Cl)s1` in this test?
inactive

So what was the verdict on `CCCCOCN(C(=O)CCl)c1c(CC)cccc1CC` in this test?
inactive

So what was the verdict on CCCCC(O)(Cn1cncn1)c1ccc(Cl)cc1Cl (stereo not drawn) in this test?
active

So what was the verdict on `CCOP(=S)(OCC)Oc1nc(Cl)n(C(C)C)n1` in this test?
inactive

So what was the verdict on `Cc1nc(N(C)C)nc(OC(=O)N(C)C)c1C` in this test?
inactive

So what was the verdict on `O=C(Nc1ccccc1-c1ccc(Cl)cc1)c1cccnc1Cl` in this test?
inactive

So what was the verdict on `CC1(C)CON(Cc2ccccc2Cl)C1=O` in this test?
inactive

* * *

Read-out: Insulin Like Growth Factor 1 (IGF1), IGF1 (gene 3479)
experimentSummary: LTEA_HepaRG_IGF1: Life Technologies and Expression Analysis (LTEA) Assay for Insulin Like Growth Factor 1 (IGF1) using HepaRG (AID 2283506)
conditionSummary: mRNA level, 48 h; actives raise or lower the signal
Calls of active or inactive are those of the source. The calls were made as follows: active = hit-call score of the fitted dose curve at least 0.9, where 1 is the maximum; inactive = score below 0.9.
Select the matching outcome among true (1) for active, false (0) for inactive

# example entries with known answers
So what was the verdict on `CO/N=C(/C1=NOCCO1)c1ccccc1Oc1ncnc(Oc2ccccc2Cl)c1F` in this test?
true (1)

So what was the verdict on `O=C(Nc1ccccc1-c1ccc(Cl)cc1)c1cccnc1Cl` in this test?
true (1)

So what was the verdict on `N#CN=C1SCCN1Cc1ccc(Cl)nc1` in this test?
false (0)

---
So what was the verdict on `Nc1cnn(-c2ccccc2)c(=O)c1Cl` in this test?
false (0)

So what was the verdict on `O=P(O)(O)CCCl` in this test?
false (0)

So what was the verdict on CC(C)=CC1C(C(=O)OCc2coc(Cc3ccccc3)c2)C1(C)C (stereo unspecified) in this test?
false (0)

So what was the verdict on COCC(C)N(C(=O)CCl)c1c(C)csc1C (stereo unspecified) in this test?
true (1)

* * *

assayedSystem: Estrogen receptor beta (Homo sapiens) (UniProt Q92731)
Sequence (Q92731 whole entry, looked up, the tested form may be a part): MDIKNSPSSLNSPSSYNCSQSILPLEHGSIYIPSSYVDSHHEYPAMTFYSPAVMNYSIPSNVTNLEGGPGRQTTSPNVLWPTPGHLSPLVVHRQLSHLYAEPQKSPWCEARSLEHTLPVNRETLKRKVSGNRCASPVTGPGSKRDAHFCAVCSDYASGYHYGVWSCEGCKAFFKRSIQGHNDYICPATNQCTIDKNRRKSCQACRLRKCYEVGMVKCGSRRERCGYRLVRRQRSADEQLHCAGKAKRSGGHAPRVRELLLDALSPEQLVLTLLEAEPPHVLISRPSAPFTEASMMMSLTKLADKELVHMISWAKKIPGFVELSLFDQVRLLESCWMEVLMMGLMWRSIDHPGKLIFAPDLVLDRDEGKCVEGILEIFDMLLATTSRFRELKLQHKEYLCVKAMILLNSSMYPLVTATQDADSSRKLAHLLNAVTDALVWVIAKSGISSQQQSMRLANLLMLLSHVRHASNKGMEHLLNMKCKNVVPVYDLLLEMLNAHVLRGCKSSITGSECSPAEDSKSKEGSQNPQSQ
experimentSummary: OT_ER_ERbERb_1440: Odyssey Thera (OT) 24-hour HEK293T Protein-Complementation Assay for Estrogen Receptor-beta/-beta Homodimer (AID 2283380);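 further: fluorescence gain from ER beta LBD homodimer complementation read by laser scanning cytometry; scored as signal increase over DMSO baseline for both agonists and antagonists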
Activity calls are given as the source filed them. Rule for the calls: active = hit-call score of the fitted dose curve at least 0.9, where 1 is the maximum; inconclusive = response in the unintended direction; inactive = score below 0.9.
measure: AC50

// solved cases for AC50 follow
Please look up its AC50: `CCOc1nc(C(Cl)(Cl)Cl)ns1`
inactive

Please look up its AC50: `COc1cc(Cl)c(OC)cc1Cl`
inactive

Please look up its AC50: `OC(c1ccc(Cl)cc1)(c1ccc(Cl)cc1)C(Cl)(Cl)Cl`
12.3 µM (active)

Please look up its AC50: `CC(C)Oc1cccc(NC(=O)c2ccccc2C(F)(F)F)c1`
inactive

Please look up its AC50: `CC1(C)CON(Cc2ccccc2Cl)C1=O`
inactive

Please look up its AC50: CCN(CC)C(=O)C(C)Oc1cccc2ccccc12 (stereo not drawn)
inactive

---
Please look up its AC50: COCc1cnc(C2=NC(C)(C(C)C)C(=O)N2)c(C(=O)O)c1 (stereo not drawn)
inactive

Please look up its AC50: `CC(C)Nc1nc(Cl)nc(NC(C)C)n1`
inactive

Please look up its AC50: `CCSC(=O)N1CCCCCC1`
inactive

Please look up its AC50: `COc1ccc(-c2ccccc2)cc1NNC(=O)OC(C)C`
inactive

Please look up its AC50: CCCN(CC)CC1COC2(CCC(C(C)(C)C)CC2)O1 (stereo not drawn)
inactive

Please look up its AC50: `CSC(=O)c1c(C(F)F)nc(C(F)(F)F)c(C(=O)SC)c1CC(C)C`
21.5 µM (active)

Please look up its AC50: `CCN(CC)c1nc(C)cc(OP(=S)(OC)OC)n1`
50 µM (active)

* * *

Read-out: Cytochrome P450 2B6 (Homo sapiens)
experimentSummary: CLD_CYP2B6_24hr: CellzDirect (CLD) Gene Expression Assay for xenobiotic metabolism (CYP2B6) at 24 hours (AID 2283686)
Results filed as inconclusive are left out. Active and inactive are the calls of the source. How the source made its calls: active means hit-call score of the fitted dose curve at least 0.9, where 1 is the maximum; inconclusive means response in the unintended direction; inactive means score below 0.9.
Select the matching outcome among y for active, n for inactive

# example entries with known answers
So what was the verdict on `COc1ccc(-c2ccccc2)cc1NNC(=O)OC(C)C` in this test?
y

So what was the verdict on CC(C)(C)C(=O)C(Oc1ccc(Cl)cc1)n1cncn1 (stereo not drawn) in this test?
y

Read the next record carefully.
So what was the verdict on `COP(=O)(OC)O/C(C)=C/C(=O)N(C)C` in this test?
n

* * *

assayedSystem: Cellular tumor antigen p53 (Homo sapiens)
experimentSummary: TOX21_p53_BLA_p5_ratio: Tox21 HCT-116 p53 Agonism Beta-lactamase Assay, Ratio, Phase 5 (AID 2283599)
Records with an inconclusive call do not appear. Calls of active or inactive are those of the source. How the source made its calls: active means hit-call score of the fitted dose curve at least 0.9, where 1 is the maximum; inconclusive means response in the unintended direction; inactive means score below 0.9.
measure: outcome

Please look up its outcome: `COC(=O)NC(=S)Nc1ccccc1NC(=S)NC(=O)OC`
inactive

Please look up its outcome: CCOC(=O)C(C)OC(=O)c1cc(Oc2ccc(C(F)(F)F)cc2Cl)ccc1[N+](=O)[O-] (stereo not drawn)
inactive

Please look up its outcome: `C=CCOC(=O)C(C)(C)OC(=O)c1cc(-n2c(=O)cc(C(F)(F)F)n(C)c2=O)ccc1Cl`
inactive

* * *

Read-out: Hypoxia-inducible factor 1-alpha (Homo sapiens) (UniProt Q16665)
Sequence (Q16665 whole entry, looked up): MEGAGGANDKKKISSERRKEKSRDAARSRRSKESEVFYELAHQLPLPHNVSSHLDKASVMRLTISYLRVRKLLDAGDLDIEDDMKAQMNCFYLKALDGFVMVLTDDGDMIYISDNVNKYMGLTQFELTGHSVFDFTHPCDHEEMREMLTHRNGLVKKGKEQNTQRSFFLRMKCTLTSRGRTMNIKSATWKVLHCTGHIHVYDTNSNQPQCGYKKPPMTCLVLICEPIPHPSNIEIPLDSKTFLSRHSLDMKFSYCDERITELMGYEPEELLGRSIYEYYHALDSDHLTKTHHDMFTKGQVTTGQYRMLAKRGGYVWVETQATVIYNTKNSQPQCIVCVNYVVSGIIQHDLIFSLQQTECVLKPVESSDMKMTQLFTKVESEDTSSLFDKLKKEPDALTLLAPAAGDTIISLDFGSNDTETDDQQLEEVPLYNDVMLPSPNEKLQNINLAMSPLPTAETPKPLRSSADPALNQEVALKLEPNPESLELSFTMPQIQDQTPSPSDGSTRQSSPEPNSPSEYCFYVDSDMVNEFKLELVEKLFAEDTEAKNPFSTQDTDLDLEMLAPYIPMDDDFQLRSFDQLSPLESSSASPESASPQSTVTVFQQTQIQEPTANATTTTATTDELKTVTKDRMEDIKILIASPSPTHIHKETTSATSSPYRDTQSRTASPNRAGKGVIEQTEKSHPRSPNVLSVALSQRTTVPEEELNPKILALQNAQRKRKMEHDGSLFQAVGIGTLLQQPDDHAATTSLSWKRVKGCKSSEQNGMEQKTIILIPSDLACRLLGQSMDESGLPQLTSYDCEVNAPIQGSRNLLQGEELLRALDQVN
experimentSummary: LTEA_HepaRG_HIF1A: Life Technologies and Expression Analysis (LTEA) Assay for Hypoxia-inducible factor 1 (HIF1A) Trancription factor using HepaRG (AID 2283503);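 further: HIF1A transcript by TaqMan qRT-PCR normalized to ACTB GAPDH and POLR2A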
conditionSummary: mRNA level, 48 h; actives raise or lower the signal
Active and inactive are the calls of the source. How the source made its calls: active means hit-call score of the fitted dose curve at least 0.9, where 1 is the maximum; inactive means score below 0.9.
measure: outcome

// solved cases for outcome follow
Please look up its outcome: `OC(c1ccc(Cl)cc1)(c1ccc(Cl)cc1)C(Cl)(Cl)Cl`
inactive

Please look up its outcome: `Clc1cccc(C(Cl)(Cl)Cl)n1`
inactive

Please look up its outcome: `O=c1n(Cl)c(=O)n(Cl)c(=O)n1Cl`
inactive

Please look up its outcome: CCOC(=O)C(C)OC(=O)c1cc(Oc2ccc(C(F)(F)F)cc2Cl)ccc1[N+](=O)[O-] (centres undefined)
inactive

Please look up its outcome: `CO/N=C(/C1=NOCCO1)c1ccccc1Oc1ncnc(Oc2ccccc2Cl)c1F`
inactive

Please look up its outcome: `COP(=S)(OC)SCn1nnc2ccccc2c1=O`
inactive

---
Please look up its outcome: CCCCC(C#N)(Cn1cncn1)c1ccc(Cl)cc1 (centres undefined)
inactive

Please look up its outcome: `Nc1cnn(-c2ccccc2)c(=O)c1Cl`
inactive

Please look up its outcome: `CC1(C)CON(Cc2ccccc2Cl)C1=O`
inactive

* * *

Read-out: Interferon-gamma inducible Protein 10 (IP10), CXCL10 (gene 3627)
experimentSummary: BSK_BE3C_IP10: BioMAP Diversity Plus: BE3C Assay for Interferon-gamma inducible Protein 10 (IP10) Biomarker Activity (AID 2283034)
conditionSummary: primary human bronchial epithelial cells; actives raise or lower the signal
Calls of active or inactive are those of the source. How the source made its calls: active means hit-call score of the fitted dose curve at least 0.9, where 1 is the maximum; inactive means score below 0.9.
Select the matching outcome among active, inactive

So what was the verdict on `Nc1c(Cl)c(F)nc(OCC(=O)O)c1Cl` in this test?
inactive

So what was the verdict on CC1(C)C(C=C(Cl)Cl)C1C(=O)OC(C#N)c1cccc(Oc2ccccc2)c1 (stereo unspecified) in this test?
inactive

So what was the verdict on `Cn1c(-c2ccccc2)cc(-c2ccccc2)[n+]1C` in this test?
active

So what was the verdict on `CCCCOCN(C(=O)CCl)c1c(CC)cccc1CC` in this test?
active

So what was the verdict on `COC(=O)c1c(C(F)F)nc(C(F)(F)F)c(C2=NCCS2)c1CC(C)C` in this test?
active

---
So what was the verdict on `COP(=S)(OC)Oc1ccc([N+](=O)[O-])c(C)c1` in this test?
inactive

* * *

assayedSystem: Cellular tumor antigen p53 (Homo sapiens)
experimentSummary: TOX21_p53_BLA_p5_ratio: Tox21 HCT-116 p53 Agonism Beta-lactamase Assay, Ratio, Phase 5 (AID 2283599)
Method: TOX21_p53_BLA_p5 is a cell-based, single-readout assay that uses HCT116, a human intestinal cell line, […] in a 1536-well plate.TOX21_p53_BLA_p5_ratio is an assay readout measuring reporter gene via receptor activity and designed using inducible reporter (beta lactamase induction) detected with GAL4 b-lactamase reporter gene. […] This assay endpoint, TOX21_p53_BLA_p5_ratio, was analyzed in the positive analysis fitting direction relative to DMSO as the negative control and baseline of activity. […]
Inconclusive results are not listed. Active and inactive are the calls of the source. How the source made its calls: active means hit-call score of the fitted dose curve at least 0.9, where 1 is the maximum; inconclusive means response in the unintended direction; inactive means score below 0.9.
Select the matching outcome among active, inactive

So what was the verdict on CC1(C)CCC(=Cc2ccc(Cl)cc2)C1(O)Cn1cncn1 (configuration not stated) in this test?
inactive

So what was the verdict on `Cc1c(COC(=O)[C@@H]2[C@H](/C=C(\Cl)C(F)(F)F)C2(C)C)cccc1-c1ccccc1` in this test?
inactive

---
So what was the verdict on `Nc1c(Cl)c(F)nc(OCC(=O)O)c1Cl` in this test?
inactive

So what was the verdict on CC(C)(C)C(=O)C(Oc1ccc(Cl)cc1)n1cncn1 (configuration not stated) in this test?
active

So what was the verdict on `N#Cc1c(Cl)cccc1Cl` in this test?
inactive

So what was the verdict on `OC(c1ccc(Cl)cc1)(c1ccc(Cl)cc1)C(Cl)(Cl)Cl` in this test?
active

So what was the verdict on `COc1cc(Cl)c(OC)cc1Cl` in this test?
inactive
